Tgt: human ApoC3 (human)
Sequence (chain, as listed by the source): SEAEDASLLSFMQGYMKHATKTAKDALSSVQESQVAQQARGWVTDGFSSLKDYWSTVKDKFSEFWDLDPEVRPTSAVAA
Method: SPR pH 5.5, antibody immobilized
Recorded Metric: pKd
Please express pKd as -log10 of the molar concentration.

binder="mAb4 (antibody, V domains shown) VH: QLVESGGGLVQPGGSLRLSCAASGFTFGTYSMRWVRQAPGKGLEWVSSIHTEGGGTAYRDSVKGRFTISRDNAKNTLYLQMNSLRAEDTAIYYCVIAGYSDWGQGTLVTVSS VL: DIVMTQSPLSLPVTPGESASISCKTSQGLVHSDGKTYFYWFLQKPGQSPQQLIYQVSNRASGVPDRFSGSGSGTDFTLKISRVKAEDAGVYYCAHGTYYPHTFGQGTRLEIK" recorded_metric=pKd experimental_result=6.36

Q. Name the recorded pKd for mAb12 (antibody, V domains shown) VH: QLVESGGGLVQPGGSLRLSCAASGFTFSTYSMRWVRQVPGKGLEWVSSIHTDAGGTAYRDSVKGRFTISRDNAKNTLYLQMNSLRPEDTAIYYCVIAGYSDWGQGTLVTVSS VL: DIVMTQSPLSLSVTPGEPASISCKTSQGLVHSDGKTYFYWFLQKPGQSPQQLIYQVSNRASGVPDRFTGSGSGTDFTLKISRVKAEDVGVYYCAHGTYYPHTFGQGTRLEIK .
A. 6.46
